Target: HLA B*0801 (Homo sapiens, UniProt P01889, A93T/A95T/D138N/E176V/E187T/K202T/Q94N/R180D/S35A/V36M/Y33D/Y91F)
Assay: biochemical
Where a SMILES comes first, the peptide text is derived from it.
IC50 vs 2 nM: less than gives Condition met; not less than gives Condition not met.

# input Please determine if CC[C@H](C)[C@H](NC(=O)[C@@H](N)CC(C)C)C(=O)NCC(=O)N[C@@H](C)C(=O)N[C@@H](CCCNC(=N)N)C(=O)N[C@@H](CCCNC(=N)N)C(=O)N[C@H](C(=O)N[C@@H](CO)C(=O)N[C@@H](Cc1ccccc1)C(=O)O)[C@@H](C)O [3102.0774] (H-LIGARRTSF-OH) is below 2 nM in terms of IC50.
# output Condition met

# input Please check: IC50 for CC(C)C[C@H](NC(=O)[C@@H](N)CCC(=O)O)C(=O)N[C@@H](CCCCN)C(=O)N[C@@H](CCC(=O)O)C(=O)N[C@@H](CCCCN)C(=O)N[C@@H](CO)C(=O)N[C@H](C(=O)N[C@@H](CCCCN)C(=O)N[C@@H](Cc1ccccc1)C(=O)O)C(C)C [3102.0712] (H-ELKEKSVKF-OH) , strictly under 2 nM or not?
# output Condition not met

# input hey, is IC50 for CSCC[C@H](N)C(=O)N[C@@H](CC(C)C)C(=O)N[C@@H](CC(C)C)C(=O)N[C@@H](CCCCN)C(=O)N[C@@H](CCCCN)C(=O)N[C@@H](CC(C)C)C(=O)N[C@@H](CC(N)=O)C(=O)N[C@@H](CO)C(=O)N[C@@H](Cc1ccccc1)C(=O)O [3102.0753] (H-MLLKKLNSF-OH) lower than 2 nM or not?
# output Condition met

* * *

Each entry below carries its reported pIC50.
Biological target: HLA B*1503 (Homo sapiens, UniProt P01889, A329T/A93T/A95T/C349S/D201E/D98Y/E187L/E204Q/K202T/N87E/Q94N/R155S/R180L/S121R/S35A/V306I/V36M/Y140S/Y91S)
Test: biochemical
Where a SMILES comes first, the peptide text is derived from it.
Give only the number. pIC50 is defined as minus log10 of concentration in molar units.

CC(C)C[C@H](NC(=O)[C@H](CO)NC(=O)[C@@H]1CCCN1C(=O)[C@H](CO)NC(=O)[C@H](Cc1ccccc1)NC(=O)[C@H](CO)NC(=O)[C@@H](N)C(C)C)C(=O)N[C@H](C(=O)N[C@@H](Cc1ccccc1)C(=O)O)[C@@H](C)O [3102.1333] (H-VSFSPSLTF-OH) :: 8.92
CC[C@H](C)[C@H](NC(=O)[C@H](CCCNC(=N)N)NC(=O)[C@H](Cc1c[nH]cn1)NC(=O)[C@H](CS)NC(=O)[C@@H](NC(=O)[C@@H](N)CCSC)C(C)C)C(=O)N[C@@H](CC(C)C)C(=O)N[C@H](C(=O)N[C@@H](Cc1ccc(O)cc1)C(=O)O)[C@@H](C)O [3102.0849] (H-MVCHRILTY-OH) :: 7.55

Then this compound:
# input # query: pIC50 of entry CC[C@H](C)[C@H](NC(=O)[C@H](Cc1ccc(O)cc1)NC(=O)[C@H](C)NC(=O)[C@H](C)NC(=O)[C@H](Cc1c[nH]cn1)NC(=O)[C@H](CO)NC(=O)[C@@H](N)CCCCN)C(=O)N[C@@H](CC(=O)O)C(=O)N[C@@H](Cc1ccc(O)cc1)C(=O)O [3102.0209] (H-KSHAAYIDY-OH)
# output 8.77

* * *

Target: HLA B*0801 (Homo sapiens, UniProt P01889, A93T/A95T/D138N/E176V/E187T/K202T/Q94N/R180D/S35A/V36M/Y33D/Y91F)
Assay: biochemical
Where a SMILES comes first, the peptide text is derived from it.
readout-kind: pIC50
Scale: pIC50 equals -log10([C]), with [C] in mol/L.

CC[C@H](C)[C@H](NC(=O)[C@H](CCCCN)NC(=O)[C@@H]1CCCN1C(=O)[C@@H](N)CCC(=O)O)C(=O)N[C@@H](CO)C(=O)N[C@@H](CC(C)C)C(=O)N[C@@H](CC(C)C)C(=O)N1CCC[C@H]1C(=O)N[C@@H](CC(C)C)C(=O)O [3102.0719] (H-EPKISLLPL-OH) :: 8.07
CSCC[C@H](N)C(=O)N[C@@H](CC(C)C)C(=O)N[C@@H](CC(C)C)C(=O)N[C@@H](CS)C(=O)N[C@@H](Cc1c[nH]cn1)C(=O)N[C@@H](CCCCN)C(=O)N1CCC[C@H]1C(=O)N[C@H](C(=O)N[C@@H](CC(C)C)C(=O)O)[C@@H](C)O [3102.0644] (H-MLLCHKPTL-OH) :: 7.72
CC[C@H](C)[C@H](NC(=O)[C@H](Cc1c[nH]cn1)NC(=O)[C@H](CS)NC(=O)[C@H](CC(C)C)NC(=O)[C@H](CC(C)C)NC(=O)[C@@H](N)CC(N)=O)C(=O)N[C@@H](Cc1ccc(O)cc1)C(=O)N[C@@H](CO)C(=O)N[C@@H](CC(C)C)C(=O)O [3102.0692] (H-NLLCHIYSL-OH) :: 9.51

# input Query (molecule): CC(C)C[C@H](NC(=O)[C@H](CCCNC(=N)N)NC(=O)[C@H](C)NC(=O)[C@H](CC(N)=O)NC(=O)[C@H](CCCNC(=N)N)NC(=O)[C@H](C)NC(=O)CNC(=O)[C@@H]1CCCN1C(=O)[C@@H](N)CC(N)=O)C(=O)O [3102.0722] (H-NPGARNARL-OH) ; field requested: pIC50
# output 8.21

# input Name the reported pIC50 value associated with the molecule CC(C)C[C@H](NC(=O)[C@H](Cc1ccccc1)NC(=O)[C@H](CCC(=O)O)NC(=O)[C@H](Cc1ccccc1)NC(=O)[C@H](CCCCN)NC(=O)[C@H](CCCCN)NC(=O)[C@H](CC(C)C)NC(=O)[C@H](CC(C)C)NC(=O)CN)C(=O)O [3102.0771] (H-GLLKKFEFL-OH)
# output 7.33

# input Entry CC[C@H](C)[C@H](NC(=O)[C@H](CC(C)C)NC(=O)[C@@H](N)CC(N)=O)C(=O)N[C@H](C(=O)N[C@@H](CC(C)C)C(=O)N[C@@H](C)C(=O)N[C@H](C(=O)N[C@@H](CO)C(=O)N[C@@H](Cc1ccccc1)C(=O)O)C(C)C)[C@@H](C)O [3102.0798] (H-NLITLAVSF-OH) has what pIC50?
# output 6.48

# input What measured pIC50 goes with CC[C@H](C)[C@H](NC(=O)CNC(=O)[C@@H]1CCCN1C(=O)[C@@H](N)CO)C(=O)N[C@@H](CCCNC(=N)N)C(=O)N1CCC[C@H]1C(=O)N[C@@H](CCCNC(=N)N)C(=O)N[C@@H](Cc1ccccc1)C(=O)N[C@@H](CC(C)C)C(=O)O [3102.0532] (H-SPGIRPRFL-OH) ?
# output 7.25

# input What does the record list as pIC50 for CC(C)C[C@H](NC(=O)[C@H](CC(N)=O)NC(=O)[C@H](Cc1ccc(O)cc1)NC(=O)[C@H](Cc1ccccc1)NC(=O)[C@H](Cc1c[nH]cn1)NC(=O)[C@H](CC(=O)O)NC(=O)[C@H](CCCNC(=N)N)NC(=O)[C@H](CC(C)C)NC(=O)[C@@H](N)Cc1ccc(O)cc1)C(=O)O [3102.0548] (H-YLRDHFYNL-OH) ?
# output 8.08

* * *

Target: HLA A*3001 (Homo sapiens, UniProt P04439, D140H/D185E/E176W/F33S/G80R/H175R/K168Q/R138E/R41S)
Sequence (P04439 25-365 limits assumed, stated change not applied): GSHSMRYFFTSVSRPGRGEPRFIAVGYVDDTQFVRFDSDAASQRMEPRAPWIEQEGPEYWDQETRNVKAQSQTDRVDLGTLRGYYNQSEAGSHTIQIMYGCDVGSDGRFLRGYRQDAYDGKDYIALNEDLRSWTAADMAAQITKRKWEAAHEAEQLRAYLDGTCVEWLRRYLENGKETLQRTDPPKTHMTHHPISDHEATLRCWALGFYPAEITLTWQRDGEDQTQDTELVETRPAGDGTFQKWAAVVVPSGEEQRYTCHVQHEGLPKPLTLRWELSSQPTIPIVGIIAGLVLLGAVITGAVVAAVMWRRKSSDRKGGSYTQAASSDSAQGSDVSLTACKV
Experiment: biochemical
Where a SMILES comes first, the peptide text is derived from it.
Entries and their IC50 values follow.
Lab book: enter the figure in nM, no units written.

CC(C)C[C@H](NC(=O)[C@H](Cc1ccccc1)NC(=O)[C@H](CO)NC(=O)[C@H](CCCCN)NC(=O)[C@H](CC(C)C)NC(=O)[C@H](CCC(N)=O)NC(=O)[C@H](CCCCN)NC(=O)[C@H](CO)NC(=O)[C@@H](N)CCCCN)C(=O)O [3102.0146] (H-KSKQLKSFL-OH) :: 13

# next molecule below
# input Entry under review: CC[C@H](C)[C@H](NC(=O)[C@H](CCCNC(=N)N)NC(=O)[C@@H](NC(=O)[C@@H](N)CCCCN)[C@@H](C)O)C(=O)N[C@@H](CCCNC(=N)N)C(=O)N[C@@H](CC(N)=O)C(=O)N[C@@H](CC(C)C)C(=O)N[C@@H](CCCCN)C(=O)N[C@@H](CCCNC(=N)N)C(=O)O [3102.0236] (H-KTRIRNLKR-OH) . Reported IC50?
# output 6.5
